assaySummary: Plasma pharmacokinetics after single ascending doses (SAD), phase 1
Format: in vivo, human (healthy adult participants)
conditionNotes: human, single 1-h IV infusion 50 mg, plasma, n = 6, arithmetic mean ± SD
Where a SMILES comes first, the peptide text is derived from it. Bridges are numbered along the chain shown (N, C = ends). [ ]: non-standard residue; d: D form. The star is where a group is joined. X1 = O=C(c1ccc(Cl)cc1Cl)*; Dab = NCC[C@H](N)C(=O)O; Abu = CC[C@H](N)C(=O)O; Dap = NC[C@H](N)C(=O)O

# compound, Cmax, ng/mL
data = [
    ("CC[C@@H]1NC(=O)[C@@H](CC(C)C)NC(=O)[C@H](CCN)NC(=O)[C@@H](NC(=O)[C@H](CN)NC(=O)[C@@H](NC(=O)[C@H](CCN)NC(=O)c2ccc(Cl)cc2Cl)[C@@H](C)O)CCNC(=O)[C@H]([C@@H](C)O)NC(=O)[C@H](CCN)NC(=O)[C@H](CCN)NC1=O [BRII-693] (X1-[Dab]T[Dap][Dab][Dab][dL][Abu][Dab][Dab]T; lactam 4-C; N-terminus assumed)", 3230),
]

---

assaySummary: Plasma pharmacokinetics after single ascending doses (SAD), phase 1
Type: in vivo, human (healthy adult participants)
conditionNotes: human, single 1-h IV infusion 200 mg, plasma, n = 6, arithmetic mean ± SD
Where a SMILES comes first, the peptide text is derived from it. Bridges are numbered along the chain shown (N, C = ends). [ ]: non-standard residue; d: D form. The star is where a group is joined. X1 = O=C(c1ccc(Cl)cc1Cl)*; Dab = NCC[C@H](N)C(=O)O; Abu = CC[C@H](N)C(=O)O; Dap = NC[C@H](N)C(=O)O

# molecule, Cmax, ng/mL
data = [
    ("CC[C@@H]1NC(=O)[C@@H](CC(C)C)NC(=O)[C@H](CCN)NC(=O)[C@@H](NC(=O)[C@H](CN)NC(=O)[C@@H](NC(=O)[C@H](CCN)NC(=O)c2ccc(Cl)cc2Cl)[C@@H](C)O)CCNC(=O)[C@H]([C@@H](C)O)NC(=O)[C@H](CCN)NC(=O)[C@H](CCN)NC1=O [BRII-693] (X1-[Dab]T[Dap][Dab][Dab][dL][Abu][Dab][Dab]T; lactam 4-C; N-terminus assumed)", 13200),
]

---

assaySummary: Plasma pharmacokinetics after multiple ascending doses (MAD), phase 1
Format: in vivo, human (healthy adult participants)
conditionNotes: human, plasma, iv, 100 mg, Last q6h dose (day 9), 7-day MAD 100 mg q6h × 7, n = 6, arithmetic mean ± SD; read-out: AUC0–6h
Where a SMILES comes first, the peptide text is derived from it. Bridges are numbered along the chain shown (N, C = ends). [ ]: non-standard residue; d: D form. The star is where a group is joined. X1 = O=C(c1ccc(Cl)cc1Cl)*; Dab = NCC[C@H](N)C(=O)O; Abu = CC[C@H](N)C(=O)O; Dap = NC[C@H](N)C(=O)O
measurementType: AUC(0-t) (ng·h/mL)

# compound, unitOfMeasure, measValue
records = [
    ("CC[C@@H]1NC(=O)[C@@H](CC(C)C)NC(=O)[C@H](CCN)NC(=O)[C@@H](NC(=O)[C@H](CN)NC(=O)[C@@H](NC(=O)[C@H](CCN)NC(=O)c2ccc(Cl)cc2Cl)[C@@H](C)O)CCNC(=O)[C@H]([C@@H](C)O)NC(=O)[C@H](CCN)NC(=O)[C@H](CCN)NC1=O [BRII-693] (X1-[Dab]T[Dap][Dab][Dab][dL][Abu][Dab][Dab]T; lactam 4-C; N-terminus assumed)", "ng·h/mL", 28600),
]
